# Test system: HepG2
# PROCEDURE_SUMMARY: Cytotoxicity against human HepG2 cells after 72 hrs by MTT assay
# Format: functional, cell-based
# CONDITION_PARAMETERS: HepG2, 72 h
Answer each item with its documented IC50.

Task item: # lookup: IC50 of CC(C)[C@H](NC(=O)OCC1c2ccccc2-c2ccccc21)C(=O)N[C@@H](COC(=O)c1ccccc1)Cc1ccccc1
Reply: > 55 µM

Task item: Now try O=C(N[C@@H](Cc1ccc2ccccc2c1)C(=O)N[C@H](COC(=O)c1ccccc1)Cc1ccccc1)OCC1c2ccccc2-c2ccccc21 .
Reply: > 55 µM

Task item: Also need CC(=O)OC[C@H](Cc1ccccc1)NC(=O)[C@H](Cc1ccccc1)NC(=O)OCC1c2ccccc2-c2ccccc21 , thanks.
Reply: > 55 µM

Task item: Proceed to O=C(N[C@@H](Cc1ccccc1)C(=O)N[C@@H](CO)Cc1ccccc1)OCC1c2ccccc2-c2ccccc21
Reply: > 55 µM

Task item: Then this compound: O=C(N[C@@H](Cc1ccc(O)cc1)C(=O)N[C@H](COC(=O)c1ccccc1)Cc1ccccc1)OCC1c2ccccc2-c2ccccc21
Reply: > 55 µM

Task item: Now consider CC(C)[C@H](NC(=O)OCC1c2ccccc2-c2ccccc21)C(=O)N[C@H](COC(=O)c1ccccc1)Cc1ccccc1 and answer again.
Reply: > 55 µM

Task item: Now the same for O=C(N[C@@H](Cc1ccccc1)C(=O)N[C@H](CO)Cc1ccccc1)OCC1c2ccccc2-c2ccccc21
Reply: > 55 µM

Task item: Please do the same for O=C(N[C@@H](Cc1ccc(O)cc1)C(=O)N[C@@H](COC(=O)c1ccccc1)Cc1ccccc1)OCC1c2ccccc2-c2ccccc21 as well.
Reply: > 55 µM

Task item: What would you report for O=C(N[C@@H](Cc1ccccc1)C(=O)N[C@H](COC(=O)c1ccccc1)Cc1ccccc1)OCC1c2ccccc2-c2ccccc21 ?
Reply: > 55 µM
